Test system: U2OS
ASSAY_DETAILS: Multiplex assay against U2OS
Format: toxicity, cell-based
ASSAY_SETUP: human, 24 h, 1 µM, compound concentration 1 uM, replicate 1
I'd appreciate it if you marked entries y when Population Mitotic Cells (%) is lower than 10% and n when it is not.

Threshold test, Population Mitotic Cells (%) < 10%: C=CCN1C[C@H](C(=O)N(CCCN(C)C)C(=O)NCC)C[C@@H]2c3cccc4[nH]cc(c34)C[C@H]21 n

Identify whether the compound Cc1cc(=O)n(C)c2cc(N3C(=O)CC[C@H](NS(=O)(=O)CC(C)C)[C@H]3c3ccc(Cl)cc3)ccc12 records Population Mitotic Cells (%) below 10%. n

Lab log: compare recorded Population Mitotic Cells (%) with 10%; is it strictly lower for COc1ccc2[nH]c(I)c(CCNC(C)=O)c2c1 ? n

Is it true that Population Mitotic Cells (%) reported for COc1ccc2c(c1OCc1ccccc1)C[C@@H](C(=O)O)N(C(=O)C(c1ccccc1)c1ccccc1)C2 is less than 10%? n

I'd appreciate it if you could check whether C[C@@H]1CC(=O)Nc2cccc(-c3ccc4c(c3)c(-c3cnn(C)c3)nn4C)c2N1 has Population Mitotic Cells (%) smaller than 10%. y

Lab note: confirm whether the reported Population Mitotic Cells (%) for this compound is below 10%, equality not counting. compound: Cc1ccc(OCC(O)C(C)NC(C)C)c2c1CCC2.Cl (configuration not stated) n

Does this compound meet the criterion Population Mitotic Cells (%) < 10%? Cc1cc(O)c(-c2ccc([C@@H](C)CN(C)C)cc2)c2c1[nH]c(=O)c1sccc12 y

Decide: Population Mitotic Cells (%) of CN(C)C/C=C/C(=O)Nc1ccc(C(=O)N2CCCC(Nc3ncc(Cl)c(-c4c[nH]c5ccccc45)n3)C2)cc1 (configuration not stated) strictly below 10%? y

Bench note: check whether CCCCCCNC(=O)Nc1ccc(S(=O)(=O)Nc2ccc(CCNC[C@H](O)COc3ccc(O)cc3)cc2)cc1 shows Population Mitotic Cells (%) below 10% n

Hello, I'm reviewing records and need to know if Population Mitotic Cells (%) of CN(C)C(=O)Cn1cc(-c2ccc(-c3nnc4ccccn34)cc2)cn1 is below 10%. Could you check? y

For this compound, is Population Mitotic Cells (%) lower than 10%? CCCCC[C@H](O)/C=C/[C@H]1[C@H](O)CC(=O)[C@@H]1CCCCCCC(=O)O y

Confirm or reject: Population Mitotic Cells (%) of Cc1sc2c(c1C)C(c1ccc(Cl)cc1)=N[C@H](CC(=O)OC(C)(C)C)c1nnc(C)n1-2 lies strictly below 10% n

Strictly below 10% in Population Mitotic Cells (%)? O=c1ccc2ccc(OCCCCN3CCN(c4cccc5sccc45)CC3)cc2[nH]1 n

Please determine if CSc1nc(NC2CCCC2)c([N+](=O)[O-])c(NC2CCCC2)n1 is below 10% in terms of Population Mitotic Cells (%). n

Could you please tell me whether Population Mitotic Cells (%) recorded for COc1cc(C(=O)N2CC[C@@H](O)[C@@H](N)C2)cc2nc(-c3cc4ccccc4n3CC3CC3)n(C)c12.Cl is less than 10%? n

In plain terms, does N[C@](CC1c2ccccc2Oc2ccccc21)(C(=O)O)[C@H]1C[C@@H]1C(=O)O come in under 10% for Population Mitotic Cells (%)? n
